Provide the reported pEC50 of each item.
target: α2(2)β2(2)α5 (Homo sapiens, UniProt P17787+P30532+Q15822); test: two-electrode voltage clamp, Xenopus oocytes, agonist-evoked response
Sequence (Q15822 27-529): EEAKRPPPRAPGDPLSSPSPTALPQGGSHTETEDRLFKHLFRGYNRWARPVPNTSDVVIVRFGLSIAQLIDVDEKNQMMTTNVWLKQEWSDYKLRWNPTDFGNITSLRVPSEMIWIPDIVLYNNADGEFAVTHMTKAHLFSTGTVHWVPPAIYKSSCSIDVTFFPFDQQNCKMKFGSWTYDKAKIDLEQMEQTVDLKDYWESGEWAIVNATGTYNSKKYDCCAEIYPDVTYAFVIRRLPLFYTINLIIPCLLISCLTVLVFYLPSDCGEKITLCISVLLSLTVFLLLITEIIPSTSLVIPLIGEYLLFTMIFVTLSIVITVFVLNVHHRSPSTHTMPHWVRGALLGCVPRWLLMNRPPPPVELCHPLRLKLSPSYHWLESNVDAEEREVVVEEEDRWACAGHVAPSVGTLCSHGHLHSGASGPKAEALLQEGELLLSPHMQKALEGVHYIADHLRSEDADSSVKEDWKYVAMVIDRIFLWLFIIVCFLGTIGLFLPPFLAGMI
Sequence (P17787 26-502): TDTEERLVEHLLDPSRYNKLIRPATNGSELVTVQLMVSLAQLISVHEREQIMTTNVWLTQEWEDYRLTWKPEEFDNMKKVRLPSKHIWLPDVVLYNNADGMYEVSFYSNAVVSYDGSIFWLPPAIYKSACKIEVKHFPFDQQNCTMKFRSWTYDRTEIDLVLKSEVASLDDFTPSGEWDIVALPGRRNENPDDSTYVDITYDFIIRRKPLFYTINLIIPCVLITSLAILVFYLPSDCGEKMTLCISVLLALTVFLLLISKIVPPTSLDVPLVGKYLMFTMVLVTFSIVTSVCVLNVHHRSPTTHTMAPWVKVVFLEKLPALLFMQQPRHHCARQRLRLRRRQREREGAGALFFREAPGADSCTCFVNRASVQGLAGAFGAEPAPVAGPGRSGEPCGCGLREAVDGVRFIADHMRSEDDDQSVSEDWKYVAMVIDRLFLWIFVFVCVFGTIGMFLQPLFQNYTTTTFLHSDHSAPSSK
Sequence (P30532 23-468): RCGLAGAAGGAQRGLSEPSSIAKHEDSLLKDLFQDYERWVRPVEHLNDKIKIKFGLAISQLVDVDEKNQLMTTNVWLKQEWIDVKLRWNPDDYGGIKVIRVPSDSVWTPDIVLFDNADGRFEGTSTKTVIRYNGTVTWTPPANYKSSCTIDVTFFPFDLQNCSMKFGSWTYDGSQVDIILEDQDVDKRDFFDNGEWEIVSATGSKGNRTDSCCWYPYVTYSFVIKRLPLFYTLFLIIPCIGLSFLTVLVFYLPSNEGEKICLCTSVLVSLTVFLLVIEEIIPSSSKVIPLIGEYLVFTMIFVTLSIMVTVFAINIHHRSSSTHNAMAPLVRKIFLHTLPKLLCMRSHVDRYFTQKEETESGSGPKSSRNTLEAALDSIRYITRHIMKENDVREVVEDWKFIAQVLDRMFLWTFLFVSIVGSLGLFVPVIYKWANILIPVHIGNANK
Give bare numbers, as −log10 of the molar value.

CCOc1cncc(/C=C/CCNC)c1 :: 5.21

Would you kindly look at the next entry?
-- ask Recorded pEC50 of `CN1CCC[C@H]1c1cccnc1` , please.
-- reply 5.80

###

Consider the following pIC50 values measured on α4β2α6β2β3 (Homo sapiens, UniProt P17787+P43681+Q05901+Q15825).
Sequence (P43681 27-627): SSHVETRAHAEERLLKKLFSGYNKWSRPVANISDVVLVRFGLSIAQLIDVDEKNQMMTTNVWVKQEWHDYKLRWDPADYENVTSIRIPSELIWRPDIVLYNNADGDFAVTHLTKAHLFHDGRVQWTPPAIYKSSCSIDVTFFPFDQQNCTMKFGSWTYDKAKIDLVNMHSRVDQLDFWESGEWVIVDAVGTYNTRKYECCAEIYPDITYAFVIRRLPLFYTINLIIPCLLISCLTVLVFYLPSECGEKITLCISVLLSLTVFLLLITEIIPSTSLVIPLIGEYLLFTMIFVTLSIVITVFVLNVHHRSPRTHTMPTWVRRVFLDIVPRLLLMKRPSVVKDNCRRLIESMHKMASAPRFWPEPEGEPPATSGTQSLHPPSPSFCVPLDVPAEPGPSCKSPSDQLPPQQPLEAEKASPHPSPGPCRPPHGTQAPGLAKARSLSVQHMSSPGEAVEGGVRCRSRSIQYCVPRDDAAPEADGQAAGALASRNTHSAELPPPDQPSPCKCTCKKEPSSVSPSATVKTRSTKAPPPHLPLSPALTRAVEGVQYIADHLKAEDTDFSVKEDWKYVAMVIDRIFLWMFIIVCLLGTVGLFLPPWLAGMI
Sequence (P17787 26-502): as the sequence (P17787 26-502) above
Sequence (Q15825 26-494): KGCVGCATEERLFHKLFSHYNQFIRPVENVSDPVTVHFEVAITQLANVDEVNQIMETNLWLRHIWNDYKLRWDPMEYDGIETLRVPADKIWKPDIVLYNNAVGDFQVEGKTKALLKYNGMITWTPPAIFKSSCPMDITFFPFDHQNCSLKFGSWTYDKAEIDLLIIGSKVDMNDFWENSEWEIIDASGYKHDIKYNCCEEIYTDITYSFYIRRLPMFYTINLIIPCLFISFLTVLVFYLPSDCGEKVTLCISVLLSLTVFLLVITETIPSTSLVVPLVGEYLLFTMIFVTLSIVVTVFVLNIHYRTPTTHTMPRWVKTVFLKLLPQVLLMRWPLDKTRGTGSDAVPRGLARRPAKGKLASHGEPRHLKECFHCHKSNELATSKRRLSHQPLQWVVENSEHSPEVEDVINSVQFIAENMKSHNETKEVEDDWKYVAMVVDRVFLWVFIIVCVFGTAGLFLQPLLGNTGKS
Sequence (Q05901 22-458): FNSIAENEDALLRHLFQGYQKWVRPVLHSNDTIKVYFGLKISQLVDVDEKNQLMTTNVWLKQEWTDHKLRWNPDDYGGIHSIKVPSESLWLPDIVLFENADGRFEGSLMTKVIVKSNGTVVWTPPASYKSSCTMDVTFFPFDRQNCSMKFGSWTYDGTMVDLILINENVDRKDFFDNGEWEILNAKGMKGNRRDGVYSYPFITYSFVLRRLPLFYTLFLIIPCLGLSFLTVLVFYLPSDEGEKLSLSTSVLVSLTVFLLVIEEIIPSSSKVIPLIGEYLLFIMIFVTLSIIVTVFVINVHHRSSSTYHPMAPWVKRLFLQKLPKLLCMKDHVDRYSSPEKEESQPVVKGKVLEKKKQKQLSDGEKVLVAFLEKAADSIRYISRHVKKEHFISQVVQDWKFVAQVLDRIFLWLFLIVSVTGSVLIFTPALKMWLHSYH
Give bare numbers, as −log10 of the molar value.

CN[C@@]1(C)[C@@H]2CC[C@@H](C2)C1(C)C [S(+)Mecamylamine] :: 4.85

Attention now turns to another entry.
-- ask Which pIC50 is reported for this molecule? CNC1(C)C2CCC(C2)C1(C)C (stereo not drawn) [R(-)Mecamylamine]
-- reply 4.89

###

target: α4(2)β2(2)α5 (Homo sapiens, UniProt P17787+P30532+P43681); assay: cell-based
Sequence (P43681 27-627): as the sequence (P43681 27-627) above
Sequence (P17787 26-502): as the sequence (P17787 26-502) above
Sequence (P30532 23-468): as the sequence (P30532 23-468) above
experimentalEndpoint: pEC50
Answers are plain numbers, as −log10 of the molar value.

-- ask Given the compound CCOc1cncc(/C=C/CCNC)c1 [TC-2559] , what is its reported pEC50?
-- reply 5.80

###

target: α4β2α6β2β3 (Homo sapiens, UniProt P17787+P43681+Q05901+Q15825); assay: cell-based
experimentalEndpoint: pEC50
Give bare numbers, as −log10 of the molar value.

-- ask What value of pEC50 on α4β2α6β2β3 (Homo sapiens, UniProt P17787+P43681+Q05901+Q15825) does `CCOc1cncc(/C=C/CCNC)c1` have?
-- reply 5.77

###

Here we list compounds with their recorded pIC50 when tested on α4(2)β2(2)α5 (Homo sapiens, UniProt P17787+P30532+P43681).
Give bare numbers, as −log10 of the molar value.

CNC1(C)C2CCC(C2)C1(C)C (stereo not drawn) [R(-)Mecamylamine] :: 4.46

-- ask Any idea what its pIC50 is? The compound is CN[C@@]1(C)[C@@H]2CC[C@@H](C2)C1(C)C [S(+)Mecamylamine]
-- reply 4.92
